TARGET_DESC: Aldo-keto reductase family 1 member B1 (Bos taurus, UniProt P16116)
TEST_DESCRIPTION: In vitro inhibition of partially purified calf lens aldose reductase
pIC50: −log10 of the molar value.
REPORTED_ENDPOINT: pIC50

O=C1NC(=O)C2(CCCCc3ccccc32)N1 (stereo not drawn) : < 4.00
COc1ccc(Cl)cc1C1(C)NC(=O)NC1=O (stereo not drawn) : < 4.00
O=C1NC(=O)C2(CCSc3cc(Cl)c(Cl)cc32)N1 (stereo not drawn) : > 7.00
O=C1NC(=O)C2(CCCC2c2ccccc2)N1 (stereo not drawn) : < 4.00
O=C1CC2(CCOc3ccc(Cl)cc32)C(=O)N1 (stereo not drawn) : > 4.00
O=C1CC2(CCc3ccccc32)C(=O)N1 (stereo not drawn) : < 4.00
O=C1NC(=O)C2(CCSc3c(Cl)cc(Cl)cc32)N1 (stereo not drawn) : > 7.00
O=C1NC(=O)C2(CCOc3ccc(-c4ccccc4)cc32)N1 (stereo not drawn) : > 4.00

Task: Given O=C1NC(=O)[C@@]2(CCSc3ccc(F)cc32)N1 , state its recorded pIC50.
Output: > 7.00

Task: Please give the result for c1ccc2c(c1)CCC21CCNC1 (stereo not drawn) too.
Output: < 4.00

Task: Please give the result for O=C1NC(=O)C2(CCOc3c(Cl)cc(Cl)cc32)N1 (stereo not drawn) too.
Output: > 7.00

Task: Please give the result for COc1ccc(Cl)c2c1C1(CCO2)NC(=O)NC1=O (stereo not drawn) too.
Output: < 4.00

Task: Please give the result for CN1C(=O)N(C)C2(CCCc3ccccc32)C1=O (stereo not drawn) too.
Output: < 4.00

Task: Please give the result for O=C1NC(=O)C2(CCn3c(=O)ccc4cc(Cl)cc2c43)N1 (stereo not drawn) too.
Output: > 7.00

Task: Please give the result for O=C1CC2(CCCc3ccccc32)CN1 (stereo not drawn) too.
Output: < 4.00

Each recorded value in this set is attributed to ChEMBL document CHEMBL1124229.
